These measurements were taken from patent US20140287989A1.

target: E. coli β clamp (β subunit of DNA polymerase III, dnaN gene product) (E. coli) (UniProt P0A988); test: ITC, peptide 400 µM into β ring 30 µM, 25 °C, second experiment
Sequence (P0A988 whole entry): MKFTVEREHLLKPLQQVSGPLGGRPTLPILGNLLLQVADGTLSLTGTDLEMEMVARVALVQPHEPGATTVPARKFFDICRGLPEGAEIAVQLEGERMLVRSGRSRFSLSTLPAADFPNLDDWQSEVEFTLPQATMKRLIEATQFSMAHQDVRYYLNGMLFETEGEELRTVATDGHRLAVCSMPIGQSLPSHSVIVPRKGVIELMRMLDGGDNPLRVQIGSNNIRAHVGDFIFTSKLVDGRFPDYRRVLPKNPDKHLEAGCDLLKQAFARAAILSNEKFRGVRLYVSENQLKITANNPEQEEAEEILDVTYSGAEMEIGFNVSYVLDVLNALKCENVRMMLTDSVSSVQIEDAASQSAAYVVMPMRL
PROPERTY LABEL: pKd
pKd (log units): -log10 of the concentration in mol/L.

Exam item: State its pKd: P3 (RQLVLF) (peptide; other documents disagree on this pair)
Marked response: 5.63
